Below is a list of entries, each paired with its recorded growth value.
- Test system: UACC-62 melanoma
- procedureSummary: NCI-60 one-dose screen, 48 h (100 = growth as untreated, 0 = no growth, -100 = all killed)
- runConditions: 10 µM unless noted
Compounds without any hit were thinned out: in the full panel of roughly 83,000, 20% have a hit.
Please reply with the bare figure in % and do not write the unit itself.

Recorded results for 3 compounds are shown here.
CCN(CC)CCOc1ccc(C(=C(C)c2ccc(Cl)cc2)c2ccc(OCCN(CC)CC)cc2)cc1 = -78.1
CN(C)Cc1ccc(NC(=O)c2cncc(C#Cc3cnc(N)c4ncccc34)c2)cc1F = 94.2
O=C1Nc2ccccc2/C1=C\c1nc(-c2ccccc2)n2ccccc12 = 78.3

API: value(readout=growth, system=UACC-62 melanoma) for record Oc1c(Cl)cc(Cl)c2ccc(Cn3cc(-c4ccc(C(F)(F)F)cc4)nn3)nc12
73.9

API: value(readout=growth, system=UACC-62 melanoma) for record Cc1ccc(C2=Nc3c(N)ncnc3NC(c3ccc4c(c3)OCO4)C2)cc1 (stereo not given)
48.5

API: value(readout=growth, system=UACC-62 melanoma) for record O=C(c1ccc(-c2nc(CSc3nc4ccccc4s3)no2)cc1)N1CCSCC1
59.9

API: value(readout=growth, system=UACC-62 melanoma) for record CN(C)CCNc1nc2c3cc(Cl)ccc3nn2c2ccccc12
73.6

API: value(readout=growth, system=UACC-62 melanoma) for record COC(=O)[C@H]1CCCN1C[C@@H](O)CN1C(=O)/C(=C\c2cc(OC)c(OC)c(OC)c2)c2ccccc21
95.2

API: value(readout=growth, system=UACC-62 melanoma) for record O=C1/C(=C/c2ccc(Cl)c(Cl)c2)CN(C(=O)C(Cl)Cl)C/C1=C\c1ccc(Cl)c(Cl)c1
-46.9

API: value(readout=growth, system=UACC-62 melanoma) for record CCN1C(=O)N(CC)C2C1NN=c1s/c(=C\c3cccc([N+](=O)[O-])c3)c(=O)n12 (stereo not given)
32.5
